- method_notes: Plasma pharmacokinetics of Compound I after single intraperitoneal dose in Swiss-Webster mice (Example 1)
- Assay type: in vivo
- experimental_setup: female, CFW (Swiss-Webster), mouse, plasma, ip, 50 mg/kg, mouse plasma, 50 mg/kg intraperitoneal, samples m.p. 3.x = 3rd time point (0.25 h), 5x dil., individual animals; read-out: Calc. Conc. (plasma concentration)
experimental_endpoint: concentration at 0.25 h (µg/mL)
Expressed in µg/mL, but write only the number.

The compound identified as O=C(O)C[C@@H]1CC[C@H](NC(=O)Cc2cccs2)B(O)O1 [Compound I] registered its concentration at 0.25 h at 64.2

* * *

- method_notes: Single-dose pharmacokinetics of Compound I, intraperitoneal administration to Swiss-Webster mice (Example 5)
- Type: in vivo
- experimental_setup: plasma, Mouse, 50 mg/kg IP
experimental_endpoint: AUC (ng·h/mL)
Form entry: value (ng·h/mL) — number only.

Lookup result for O=C(O)C[C@@H]1CC[C@H](NC(=O)Cc2cccs2)B(O)O1 ; measured AUC: 31400

* * *

- method_notes: Single-dose pharmacokinetics of Compound I, intravenous 30-minute infusion in Beagle dogs (Example 5)
- Type: in vivo
- experimental_setup: Beagle, in vivo, Dog, 2 mg/kg IV
experimental_endpoint: Cmax (ng/mL)
Express your answer in ng/mL, writing the number without its unit.

Lookup result for O=C(O)C[C@@H]1CC[C@H](NC(=O)Cc2cccs2)B(O)O1 [Compound I] ; measured Cmax: 6490

* * *

- method_notes: Plasma pharmacokinetics of Compound I after single intraperitoneal dose in Swiss-Webster mice (Example 1)
- Assay type: in vivo
- experimental_setup: female, CFW (Swiss-Webster), mouse, plasma, ip, 15 mg/kg, mouse plasma, 15 mg/kg intraperitoneal, samples m.p. 2.x = 2nd time point (0.16 h), individual animals; read-out: Calc. Conc. (plasma concentration)
experimental_endpoint: concentration at 0.16 h (ng/mL)
Give the value, in units of ng/mL, as a plain number.

// sample O=C(O)C[C@@H]1CC[C@H](NC(=O)Cc2cccs2)B(O)O1 , its concentration at 0.16 h was 15500

* * *

- method_notes: in vivo
- Design: species or system Swiss-Webster mice
- experimental_setup: female, CFW (Swiss-Webster), mouse, ip, 25 mg/kg
experimental_endpoint: half-life (min)
Field: numeric (min). Do not append units.

Lookup result for C[C@@H](O)[C@H]1C(=O)N2C(C(=O)[O-])=C(SC3Cn4cnc[n+]4C3)[C@H](C)[C@H]12 (stereo partly shown) ; measured half-life: 10.2

* * *

- method_notes: Plasma pharmacokinetics of Compound I and Biapenem alone or in combination after 1.5 hour intravenous infusion in Sprague-Dawley rats (Example 3)
- Type: in vivo
- experimental_setup: male, Sprague-Dawley, rat, plasma, iv, 20 mg/kg, Sprague-Dawley rats, 1.5 hour intravenous infusion, 20 mg/kg Compound I in combination with 20 mg/kg Biapenem
experimental_endpoint: half-life

1) C[C@@H](O)[C@H]1C(=O)N2C(C(=O)[O-])=C(SC3Cn4cnc[n+]4C3)[C@H](C)[C@H]12 (some centres unmarked) [Biapenem]; 13.2 min

# half-life (compound: O=C(O)C[C@@H]1CC[C@H](NC(=O)Cc2cccs2)B(O)O1 [Compound I] ) is 23.4 min

* * *

- method_notes: Plasma pharmacokinetics of Compound I after single intraperitoneal dose in Swiss-Webster mice (Example 1)
- Type: in vivo
- experimental_setup: female, CFW (Swiss-Webster), mouse, plasma, ip, 15 mg/kg, mouse plasma, 15 mg/kg intraperitoneal, samples m.p. 1.x = 1st time point (0.08 h), individual animals; read-out: Calc. Conc. (plasma concentration)
experimental_endpoint: concentration at 0.08 h (ng/mL)
Write the value in ng/mL as a bare number.

Record O=C(O)C[C@@H]1CC[C@H](NC(=O)Cc2cccs2)B(O)O1 [Compound I] . Reported concentration at 0.08 h: 16700
